# credit: PubChem BioAssay (NCATS)

PROCEDURE TEXT: Viability qHTS for spleen associated tyrosine kinase inhibitor (SYKi) naive MV4-11 cells (AID 1963823); note: nearly all actives have a fitted effect of over 40% in size
SETTINGS: MV4-11 AML viability, CellTiter-Glo luminescence, 72 h; series mostly up to 45 µM
Results filed as inconclusive are left out. The source made the active and inactive calls. Calls come from the whole dose curve; as a rule, active = well fitted cell-killing curve with a large enough effect; inconclusive = small, poorly fitted or top-dose-only effect, or effect the other way; inactive = no such curve, though single readings can be large or run the other way.
Select the correct class. Options are t (active), f (inactive) and nothing else.

Req: Called result for Cc1ccc(Nc2ncc3c(n2)N(C)C(=O)N(c2cc(NC(=O)c4cccc(C(F)(F)F)c4)ccc2C)C3)cn1
Resp: t

Req: Called result for O=C(Nc1ccc(C(O)(C(F)(F)F)C(F)(F)F)cc1)c1ccc(C(F)(F)F)cc1
Resp: t

Req: Called result for C[C@@H](N)C1CCC(C(=O)Nc2ccncc2)CC1 (stereo not given in full)
Resp: f

Req: Called result for O=S1(=O)OC(c2ccc(O)cc2)(c2ccc(O)cc2)c2ccccc21
Resp: f

Req: Called result for C=C1C(=O)OC2/C=C(\C)CC/C=C(\C)CC(OC(C)=O)C12 (stereo not given)
Resp: t

Req: Called result for CC(=O)Nc1ccccc1
Resp: f

Req: Called result for CCCCCOC(=O)Nc1nc(=O)n(C2O[C@H](C)[C@@H](O)[C@H]2O)cc1F (stereo not given in full)
Resp: f

Req: Called result for Cc1cc(I)ccc1Nc1c(C(=O)NOCC2CC2)cc(F)c(F)c1F
Resp: t

Req: Called result for COc1cc2c(cc1Cc1cccc(Cl)c1F)c(=O)c(C(=O)O)cn2[C@H](CO)C(C)C
Resp: t

Req: Called result for Cc1c(F)ccc(C(=O)Nc2cc([N+](=O)[O-])ccc2N2CCN(C)CC2)c1Cl
Resp: t

Req: Called result for NCCc1cnc[nH]1
Resp: t

Req: Called result for O=C(O)c1ccnc2cc(C(OCC3CCC(F)(F)CC3)c3ccccc3Cl)[nH]c12 (stereo not given)
Resp: f

Req: Called result for C[C@@H]1O[C@@H](OC[C@H]2O[C@@H](OCc3ccccc3)[C@H](O)[C@@H](O)[C@@H]2O)[C@H](O)[C@H](O)[C@H]1O
Resp: f

Req: Called result for C=C1CC[C@H]2[C@@](C)(CCC(O)[C@@]2(C)CO)[C@@H]1CCC1=CCOC1=O (stereo not given in full)
Resp: f

Req: Called result for COc1ccccc1-n1c(SCC(=O)Nc2nc3ccc(C)cc3s2)nc2c(c1=O)SCC2
Resp: f

Req: Called result for CC(=C\C(C)O)/C=C(\C)C(=O)CC1CC(CC(N)=O)CC(=O)O1 (stereo not given)
Resp: f

Req: Called result for C=C(C(=O)O[C@H]1C/C(C)=C/CC/C(CO)=C/[C@H]2OC(=O)C(=C)[C@H]12)C(O)CO (stereo not given in full)
Resp: t

Req: Called result for Nc1nc2c(cnn2CCCc2ccc(O)cc2)c2nc(-c3ccco3)nn12
Resp: f

Req: Called result for CC[N+]1(C/C2=C/CCCCCC2)CCC(NC(=O)C2c3cc(Cl)ccc3Oc3ccc(Cl)cc32)CC1 (stereo not given)
Resp: t

Req: Called result for O=C(/C=C/c1ccc(O)cc1)OCC1OC(O)C(OC2OC(CO)C(O)C(O)C2O)C(O)C1O (stereo not given)
Resp: f
